# System: SKM MYOFIBRIL
# assay_name: SKM myofibril AC1.4 (ATPase, PK/LDH coupled enzyme system); also: unit not given here
# Type: biochemical
# study_conditions: screen at pCa=6.5
Response field label takes T when SKM MYOFIBRIL AC1.4 (median) is strictly below 10 and F in all other cases.

{"columns": ["compound", "system", "label"],
 "data": [
  ["CC(CO)c1ccn2c(NCc3cccc(Cl)c3)c(-c3ccccc3O)nc2c1 (stereo not drawn)", "SKM MYOFIBRIL", "T"],
  ["Cc1ccn2c(NCc3cccc(F)c3)c(-c3ccccc3O)nc2c1", "SKM MYOFIBRIL", "T"],
  ["O=C(c1ccc2nc(-c3ccccc3O)c(NCc3cccc(Cl)c3)n2c1)N1CCOCC1", "SKM MYOFIBRIL", "F"],
  ["C[C@H](Nc1c(-c2ccc(O)cc2)nc2ccccn12)C(C)(C)C", "SKM MYOFIBRIL", "F"],
  ["O=C(NCCO)c1ccc2nc(-c3ccccc3O)c(NCc3cccc(Cl)c3)n2c1", "SKM MYOFIBRIL", "T"],
  ["c1csc(-c2nc3ccccn3c2NC2CCCCC2)c1", "SKM MYOFIBRIL", "F"]
]}

###

# Tested on: SKM MYOFIBRIL
# assay_name: SKM myofibril AC1.4 (ATPase, PK/LDH coupled enzyme system); also: unit not given here
# Type: biochemical
# study_conditions: screen at pCa=6.5
Item-by-item account of SKM MYOFIBRIL AC1.4 (median)

{"columns": ["structure_notation", "system", "SKM MYOFIBRIL AC1.4 (median)"],
 "data": [
  ["CCc1ccc2nc(-c3ccc(O)cc3)c(NC3CCCCC3)n2c1", "SKM MYOFIBRIL", 4.3136],
  ["Oc1ccc(-c2nc3cccc(Br)n3c2NC2CCCCC2)cc1", "SKM MYOFIBRIL", 21.5453],
  ["NC(=O)c1ccc2nc(-c3ccccc3O)c(NCc3ccc(F)cc3)n2c1", "SKM MYOFIBRIL", 2.0079],
  ["Oc1ccccc1-c1nc2cccc(Br)n2c1NCc1cccc(Cl)c1", "SKM MYOFIBRIL", 12.5914],
  ["CCC(C)(C)Nc1c(-c2cc3cc(C)ccc3nc2O)nc2ccccn12", "SKM MYOFIBRIL", 1.1087]
]}

###

# System: SKM MYOFIBRIL
# assay_name: SKM myofibril AC1.4 (ATPase, PK/LDH coupled enzyme system); also: unit not given here
# Assay type: biochemical
# study_conditions: screen at pCa=6.5

{"columns": ["structure_notation", "SKM MYOFIBRIL AC1.4 (median)"],
 "data": [
  ["COc1cccc(CNc2c(-c3ccccc3O)nc3cc(C)ccn23)c1", 10.2909],
  ["COC(=O)c1ccc2nc(-c3ccccc3O)c(NCc3cccc(Cl)c3)n2c1", 2.0174],
  ["Cc1cn2c(NCc3cccc(Cl)c3)c(-c3ccccc3O)nc2cn1", 3.6886],
  ["N#Cc1ccc2nc(-c3ccccc3O)c(NCc3cccc(Cl)c3)n2c1", 2.6805],
  ["Cc1ccn2c(NCc3ccccc3F)c(-c3ccccc3O)nc2c1", 1.0036],
  ["Cc1cccn2c(NC3CCCC3)c(-c3ccccc3O)nc12", 11.3023]
]}

###

# Test system: SKM MYOFIBRIL
# assay_name: SKM myofibril AC1.4 (ATPase, PK/LDH coupled enzyme system); also: unit not given here
# Format: biochemical
# study_conditions: screen at pCa=6.5
Recorded SKM MYOFIBRIL AC1.4 (median) values for a group of molecules are listed next.

{"columns": ["structure_notation", "SKM MYOFIBRIL AC1.4 (median)"],
 "data": [
  ["Oc1ccc(-c2nc3ccccn3c2NCc2ccc(F)cc2F)cc1", 37.1035],
  ["Cc1ccn2c(NCc3ccccc3Cl)c(-c3ccccc3O)nc2c1", 1.165],
  ["Cc1ccn2c(NCc3ccccc3C)c(-c3ccccc3O)nc2c1", 0.9648],
  ["CCc1ccn2c(NCc3cccc(Cl)c3)c(-c3ccccc3O)nc2c1", 0.9168],
  ["Cc1ccc2nc(-c3ccccc3O)c(NCc3cccc(Cl)c3)n2n1", 3.5753],
  ["Cc1ccn2c(NCc3ccc(Cl)cc3)c(-c3ccccc3O)nc2c1", 3.3207],
  ["Cc1ccn2c(NCC(=O)N3CCCCC3)c(-c3ccccc3O)nc2c1", 40.2086],
  ["Cc1ccc(-c2nc3ccccn3c2NCc2cccc(Cl)c2)cc1", 17.6147],
  ["C[C@@H](Nc1c(-c2ccc(O)cc2)nc2ccccn12)C(C)(C)C", 15.0489],
  ["OCc1ccc2nc(-c3ccccc3O)c(NCc3cccc(Cl)c3)n2c1", 1.6756],
  ["Oc1ccc(-c2nc3ccccn3c2NCc2ccc(F)cc2)cc1", 40.3674]
]}

Source: patent US20100173930A1
